Origin of measurements: PubChem BioAssay

# assay-explanation: viability loss in pontine glioma line – cell-based, JHH-DIPG-1, MIPE4.0, CellTiter-Glo, qHTS, dose response (AID 1347062);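 for AC50: cells exposed to compound for two days before readout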
# test-context: JHH-DIPG-1 viability, CellTiter-Glo ATP luminescence
Inconclusive results are not listed. Calls of active or inactive are those of the source. No cut-off is given here; in the data, nearly all actives have AC50 up to about 27 µM.
observable: AC50

compound: Cc1ccc(S(=O)(=O)Nc2nc3ccccc3nc2Nc2ccc3nsnc3c2)cc1
observable: AC50
value-observed: 0.512 µM (active)

compound: C[C@]12C=CC(=O)N[C@@H]1CC[C@@H]1[C@@H]2CC[C@]2(C)[C@@H](C(=O)Nc3cc(C(F)(F)F)ccc3C(F)(F)F)CC[C@@H]12
observable: AC50
value-observed: inactive

compound: Nc1nc(N)c2nc(-c3cccc(O)c3)c(-c3cccc(O)c3)nc2n1
observable: AC50
value-observed: 14.8 µM (active)

compound: CC1(C)CCC(c2ccc(Cl)cc2)=C(CN2CCN(c3ccc(C(=O)NS(=O)(=O)c4ccc(N[C@H](CCN5CCOCC5)CSc5ccccc5)c(S(=O)(=O)C(F)(F)F)c4)cc3)CC2)C1
observable: AC50
value-observed: 18.7 µM (active)

compound: O=C1NC(O)CCN1[C@@H]1O[C@H](CO)[C@@H](O)[C@H]1O (stereo partly drawn)
observable: AC50
value-observed: inactive

Record AC50 for all entries; do not skip any.
1. COc1cc2nccc(Oc3ccc(NC(=O)C4(C(=O)Nc5ccc(F)cc5)CC4)cc3)c2cc1OC
2. Cc1csc(-c2nnc(Nc3ccc(Oc4ncccc4-c4ccnc(N)n4)cc3)c3ccccc23)c1

Result:
2.35 µM (active)
inactive

Problem: Kindly indicate its recorded AC50. Item: CC(C)(C)OC(=O)CN(Cc1ccc(Cl)cc1)Cc1ccc([N+](=O)[O-])s1
Result: inactive

----------
# assay-explanation: viability loss in pontine glioma line – cell-based, SU-DIPG-XXV, MIPE5.0, CellTiter-Glo, qHTS, dose response (AID 1347065);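 note: cells exposed to compound for 48 hours before ATP readout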
# test-context: CellTiter-Glo ATP luminescence
Inconclusive results are not listed. Active and inactive are the calls of the source. The limit is not given here; nearly all actives have AC50 up to about 26 µM.
Please reply with one of these outcomes: y = active, n = inactive

compound: Cc1cc(SCc2sc(-c3ccc(C(F)(F)F)cc3)nc2C)ccc1OCC(=O)O
label: n

compound: O=c1ccn([C@@H]2O[C@H](CO)[C@@H](O)[C@@H]2F)c(=O)[nH]1
label: n

compound: CN(C)Cc1c(C(=O)NCCOc2ccc(C(=O)NO)cc2)oc2ccccc12
label: y

compound: Clc1ccc(COC(Cn2ccnc2)c2ccc(Cl)cc2Cl)c(Cl)c1 (stereo not drawn)
label: y

compound: O=c1cc(CN2CCOCC2)occ1OCCCCCSc1ccnc2cc(C(F)(F)F)ccc12
label: y

compound: Cc1cc(N2CCOCC2)cc2[nH]c(-c3c(NC[C@@H](O)c4cccc(Cl)c4)cc[nH]c3=O)nc12
label: y

Problem: Each compound tested received a call. Report the one for Cc1c(-c2c(-c3ccc(F)o3)sc3ncnc(O[C@@H](Cc4ccccc4OCc4ccnn4CC(F)(F)F)C(=O)O)c23)ccc(OCCN2CCN(C)CC2)c1Cl .
Result: y

Problem: Check the results log: what was the call for CC(C)C[C@H](NC(=O)CNC(=O)c1cc(Cl)ccc1Cl)B1OC(=O)CC(CC(=O)O)(C(=O)O)O1 (stereo partly drawn) ?
Result: y

----------
# assay-explanation: viability loss in pontine glioma line – cell-based, SU-DIPG-XVII, MIPE5.0, CellTiter-Glo, qHTS, dose response (AID 1347060);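 for AC50: cells exposed to compound for 48 hours before viability readout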
# test-context: CellTiter-Glo ATP luminescence
Results filed as inconclusive are left out. The source made the active and inactive calls. Cut-off not given; nearly all actives show AC50 up to about 26 µM.
observable: AC50

Use these answered entries as a reference point.
compound: Cc1ccc([N+](=O)[O-])cc1S(=O)(=O)N(C)/N=C/c1cnc2ccc(Br)cn12
AC50: 0.132 µM (active)
--
compound: O=C(c1ccc(F)c(F)c1Nc1ccc(I)cc1F)N1CC(O)([C@@H]2CCCCN2)C1
AC50: 0.332 µM (active)
--
compound: C=CC(=O)Nc1cccc(Nc2nc(Nc3ccc(Oc4ccnc(C(=O)NC)c4)cc3)ncc2F)c1
AC50: 10.5 µM (active)
--
compound: CC(C)Oc1ccc(-c2nn([C@@H](C)c3oc4ccc(F)cc4c(=O)c3-c3cccc(F)c3)c3ncnc(N)c23)cc1F
AC50: inactive
--
compound: Cc1cc(Nc2cc(N3CCN(C)CC3)nc(Sc3ccc(NC(=O)C4CC4)cc3)n2)n[nH]1
AC50: 2.95 µM (active)
--
compound: Cn1ncc(Cl)c1-c1cc(C(=O)NC(CN)Cc2ccc(F)c(F)c2)oc1Cl (stereo not drawn)
AC50: 14.8 µM (active)
--
compound: CN(C(=O)c1ccc(F)cc1C(F)(F)F)C1CCN(c2nnc(-c3ccnn3C)c3ccccc23)CC1
AC50: inactive

We next turn to a different compound, shown below.
Problem: Return AC50 (reported value) for this compound: CC[C@H](C)[C@@H]([C@@H](CC(=O)N1CCC[C@H]1[C@H](OC)[C@@H](C)C(=O)N[C@@H](Cc1ccccc1)c1nccs1)OC)N(C)C(=O)[C@@H](NC(=O)[C@H](C(C)C)N(C)C)C(C)C
Result: inactive

----------
# assay-explanation: MELAS cybrid and Rieske KO viability enhancers – cell-based, MELAS cybrids, Rieske KO mouse fibroblasts, CellTiter-Glo, primary screen (AID 1508586);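 note: z relative to plate mean and SD of compound and empty wells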
# test-context: MELAS cybrid survival, low glucose, CellTiter-Glo 48 h; stronger effect = higher value
Threshold check on z-score: at or above 1 gives yes (1), strictly below gives no (0).

These solved cases illustrate the format of a correct answer.
compound: CCOC(=O)CCNc1cc(N2CCc3ccccc3CC2)nc(-c2ccccn2)n1
label: no (0)
--
compound: O=C(NC(NC(=S)Nc1ccc(F)c([N+](=O)[O-])c1)C(Cl)(Cl)Cl)C(c1ccccc1)c1ccccc1 (centres undefined)
label: no (0)
--
compound: COc1cc(N2CCC(N(C)C)CC2)ccc1Nc1ncc(Cl)c(Nc2ccccc2P(C)(C)=O)n1
label: yes (1)
--
compound: CS(=O)(=O)N1CCN(Cc2cc3nc(-c4cccc5[nH]ncc45)nc(N4CCOCC4)c3s2)CC1
label: yes (1)

Problem: Does O=C(Nc1ccccc1-c1cn2c(CN3CCNCC3)csc2n1)c1cnc2ccccc2n1 have a reported z-score of at least 1?
Result: no (0)

Problem: In plain terms: is recorded z-score at least 1 for O=C1c2cccc(O)c2C(=O)c2c(O)cc(CO)cc21 ?
Result: no (0)

Problem: Textbook exercise: given the entry NC(=O)c1cccc(-c2cc(Nc3ccc(OC(F)(F)F)cc3)ncn2)c1 , state whether its z-score is greater than or equal to 1.
Result: no (0)

Problem: Hi, just wondering whether COc1ccc(-c2cc3c(C)nc(N)nc3n(C3CCC(OCCO)CC3)c2=O)cn1 (centres undefined) shows z-score of 1 or higher.
Result: yes (1)

Problem: Does C=CC(=O)Nc1cccc(Nc2nc(Nc3ccc(Oc4ccnc(C(=O)NC)c4)cc3)ncc2F)c1 have a reported z-score of at least 1?
Result: yes (1)

----------
# assay-explanation: drug combination growth inhibition, ovarian cancer – cell-based, oncology-focused library, rucaparib conditional, profiling panel (AID 1508598)
# test-context: patient-derived ovarian cancer cells, CellTiter-Glo viability, 144 h; at 5 µM; OCI-C5x cells; with rucaparib 10 µM; 100% = cells with rucaparib alone
Calls of active or inactive are those of the source.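 Rule for the calls: active = normalized viability below 100% at a tested concentration; inactive = the rest.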
Pick one: active, inactive

Use the examples below as a reference point.
smiles-string: Nc1nc(Nc2ccc(S(N)(=O)=O)cc2)nn1C(=O)c1c(F)cccc1F
label: active
//
smiles-string: COc1nc(C)cnc1NS(=O)(=O)c1cccnc1-c1ccc(-c2nnco2)cc1
label: inactive
//
smiles-string: O=C(NOC[C@H](O)CO)c1ccc(F)c(F)c1Nc1ccc(I)cc1F
label: active

Problem: Fill in: this test's call for COCCn1c2c([n+](Cc3cnccn3)c1C)C(=O)c1ccccc1C2=O is ___
Result: active

Problem: For this molecule, state the assay outcome: COCCOc1nc(-c2ccc(Cl)c(Cl)c2)n(-c2ccc(NC(=O)CCl)cc2)n1
Result: active

----------
# assay-explanation: growth inhibition of DIPG cells – cell-based, MIPE5.0 library, qHTS (AID 1347068);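 for IC50: cells exposed to compound for 48 hours before viability readout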
# test-context: SU-DIPG-XXV viability
Results filed as inconclusive are left out. Activity calls are given as the source filed them. The limit is not given here; nearly all actives have IC50 up to about 30 µM.
The reply should name one outcome from active, inactive

Some entries whose results are on file:
compound: Cc1nc2cnc3ccc(C#Cc4cccnc4)cc3c2n1-c1ccc(C(C)(C)C#N)cc1
label: active
--
compound: NC(=O)c1ccccc1Nc1ccnc(Nc2cccc(O)c2)n1
label: active
--
compound: COC(=O)N(CC(=O)O)Cc1cccc(OCc2nc(-c3ccc(Cl)cc3)oc2C)c1
label: inactive
--
compound: CCCOc1ccc(CCc2nc3cc(-c4c(C)noc4C)ccc3n2CCN2CCOCC2)cc1
label: inactive
--
compound: CN1c2cc(O)c(N=NC(N)=O)cc2CC1S(=O)(=O)O (stereo not given)
label: inactive

Problem: Call for entry Cc1cc(Nc2cc(N3CCN(C)CC3)nc(/C=C/c3ccccc3)n2)n[nH]1 :
Result: active

Problem: Called result for C[C@H](Nc1nc(N[C@H](C)C(F)(F)F)nc(-c2cccc(Cl)n2)n1)C(F)(F)F
Result: inactive

Problem: I'd appreciate the recorded outcome for O=C(O)CCNc1cc(N2CCc3ccccc3CC2)nc(-c2cccnc2)n1 from this test.
Result: inactive

Problem: What did this assay record as the result for C[C@H](Cc1ccc(O)c(O)c1)[C@@H](C)Cc1ccc(O)c(O)c1 ?
Result: inactive

Problem: How did this test come out for Cc1c(F)ccc(C(=O)Nc2cc([N+](=O)[O-])ccc2N2CCN(C)CC2)c1Cl ?
Result: inactive
